These measurements were taken from paper PMC6565636.

Tested on: T1, Taz1 (Schizosaccharomyces pombe (fission …, UniProt P79005 1-663))
T1 sequence: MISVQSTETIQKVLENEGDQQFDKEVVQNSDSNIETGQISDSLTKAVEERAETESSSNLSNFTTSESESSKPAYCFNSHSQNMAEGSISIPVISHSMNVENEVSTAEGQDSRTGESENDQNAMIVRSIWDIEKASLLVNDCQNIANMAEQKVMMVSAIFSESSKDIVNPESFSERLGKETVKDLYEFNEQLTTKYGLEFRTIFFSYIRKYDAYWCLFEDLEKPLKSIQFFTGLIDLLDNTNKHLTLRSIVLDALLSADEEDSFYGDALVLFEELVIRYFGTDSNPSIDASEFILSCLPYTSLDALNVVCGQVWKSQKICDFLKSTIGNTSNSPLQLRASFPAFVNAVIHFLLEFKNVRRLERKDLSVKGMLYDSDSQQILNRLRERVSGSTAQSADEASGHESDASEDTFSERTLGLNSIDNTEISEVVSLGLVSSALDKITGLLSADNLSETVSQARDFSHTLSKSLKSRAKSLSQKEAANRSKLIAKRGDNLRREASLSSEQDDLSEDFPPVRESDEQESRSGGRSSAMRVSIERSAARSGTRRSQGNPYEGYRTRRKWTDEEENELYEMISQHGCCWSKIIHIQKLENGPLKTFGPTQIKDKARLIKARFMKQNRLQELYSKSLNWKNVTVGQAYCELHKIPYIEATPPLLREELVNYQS
Assay procedure: EMSA; EMSA with oligos heat-denatured and renatured in 50 mM KCl/40% PEG200 (Fig 5: 50 mM Tris-HCl pH 7.5 with KCl, NaCl or none); gel shift buffer 40 mM Hepes-KOH pH 7.6, 50 mM KCl, 1 mM EDTA, 10% glycerol, 0.01% Triton X-100; pull-down 30 min at room temperature; +++/++/+ = >50/>16/>6% shift at 1 nM Rif1
Condition summary: protein: recombinant; tags: N-term His6, C-term FLAG3; chain copies: 2; label: 32P; blunt
Measure name: Kd

Q. Provide one value: measured Kd of Taz1BS (dsDNA) DNA 1: TTACAGGTTACAGGTTACAGG DNA 2: CCTGTAACCTGTAACCTGTAA
A. ~30 nM
